# Test system: HCV proteins in Rep5.1 cells (replicon cell line)
# Protocol: Inhibitory activity of HCV: cell-based ELISA in replicon cell line Rep5.1 (decrease of HCV proteins)
# Set-up: species or system hepatitis C virus
# Condition Description: Hepatitis C virus, 72 h, Rep5.1 cells, 72 hours with drug, decrease of HCV proteins measured by HCV antibody; Table 1; read-out: Level (IC50 values classified)
pIC50: −log10 of the molar value.
Quick list: pIC50 per entry.

Solved cases (3 shown):
Molecule	Result
CC1=C(C(=O)OCc2cccc([N+](=O)[O-])c2)CNC(=S)N1	5.00 to 6.00
CCCC1=C(C(=O)OCc2ccccc2)CNC(=S)N1	5.00 to 6.00
CC1=C(C(=O)OCc2cc(C)cc(C)c2)CNC(=S)N1	> 6.00

molecule CC1=C(C(=O)OCc2nc3ccccc3s2)CNC(=S)N1 , pIC50 observed: 5.00 to 6.00

====

# Tested on: HCV proteins in Rep5.1 cells (replicon cell line)
# Protocol: Inhibitory activity of HCV: cell-based ELISA in replicon cell line Rep5.1 (decrease of HCV proteins)
# Set-up: species or system hepatitis C virus
# Condition Description: Hepatitis C virus, 72 h, Rep5.1 cells, 72 hours with drug, decrease of HCV proteins measured by HCV antibody; Table 1; read-out: Level (IC50 values classified)
pIC50: −log10 of the molar value.
Overview of reported pIC50 across a group of molecules:

Molecule	pIC50
CC1=C(C(=O)OCc2cc(C)ccc2C)CNC(=S)N1	> 6.00
CC1=C(C(=O)OCC2(c3ccc(Cl)cc3)CC2)C(CO)NC(=S)N1 (stereo not shown)	5.00 to 6.00
CC(=O)OCC1NC(=S)NC(C)=C1C(=O)OCCc1ccsc1 (stereo not shown)	< 4.70
CCOc1ccccc1COC(=O)C1=C(C)NC(=S)NC1CF (stereo not shown)	> 6.00
CC1=C(C(=O)OCCc2ccsc2Br)C(CF)NC(=S)N1 (stereo not shown)	5.00 to 6.00
CCc1ccc(CCOC(=O)C2=C(C)NC(=S)NC2CF)o1 (stereo not shown)	> 6.00
CC1=C(C(=O)OCCc2ccsc2F)C(CF)NC(=S)N1 (stereo not shown)	5.00 to 6.00
CC1=C(C(=O)OCc2ccc(-c3cnc(C)s3)s2)CNC(=S)N1	5.00 to 6.00

// CC1=C(C(=O)OCCCCCCCCc2ccccc2)CNC(=S)N1 : pIC50 value = > 6.00

Measured pIC50, CC1=C(C(=O)OCCc2ccc(Cl)c(Cl)c2)C(CO)NC(=S)N1 (stereo not shown) : > 6.00

====

# Tested on: HCV proteins in Rep5.1 cells (replicon cell line)
# Protocol: Inhibitory activity of HCV: cell-based ELISA in replicon cell line Rep5.1 (decrease of HCV proteins)
# Set-up: species or system hepatitis C virus
# Condition Description: Hepatitis C virus, 72 h, Rep5.1 cells, 72 hours with drug, decrease of HCV proteins measured by HCV antibody; Table 1; read-out: Level (IC50 values classified)
Readout: IC50

Compound	IC50
CC1=C(C(=O)OCCOCc2ccccc2)CNC(=S)N1 [Compound 15]	1000 to 10000 nM
CC1=C(C(=O)OCc2ccsc2)CNC(=S)N1 [Compound 139]	1000 to 10000 nM
COc1ccc(C2(COC(=O)C3=C(C)NC(=S)NC3CF)CCCC2)cc1 (stereo not shown) [64′]	1000 to 10000 nM

Sample CC1=C(C(=O)OCc2ccccc2S(C)(=O)=O)CNC(=S)N1 [Compound 112] ; IC50 observed: > 20000 nM

Form field IC50, entry O=C(OCCc1ccsc1)C1=CNC(=S)NC1 [Compound 261] : < 1000 nM

Reported IC50 of CC1=C(C(=O)OCC=Cc2ccsc2)C(CF)NC(=S)N1 (stereo not shown) [Compound 269] : 1000 to 10000 nM

Kindly note the recorded IC50 for CC1=C(C(=O)OCC2CC=CCC2)CNC(=S)N1 (stereo not shown) [3′] , which is < 1000 nM

// C=CCN(C)c1ccc(CCOC(=O)C2=C(C)NC(=S)NC2CO)cc1[N+](=O)[O-] (stereo not shown) [96″] : IC50 value = < 1000 nM

Quick note, IC50 for CC1=C(C(=O)OCCCc2cc3ccccc3s2)C(CF)NC(=S)N1 (stereo not shown) [58′] landed at 1000 to 10000 nM

According to the records, this compound CC1=C(C(=O)OCc2ccc(C)c([N+](=O)[O-])c2)CNC(=S)N1 [Compound 136] displays IC50 of < 1000 nM

====

# Tested on: HCV proteins in Rep5.1 cells (replicon cell line)
# Protocol: Inhibitory activity of HCV: cell-based ELISA in replicon cell line Rep5.1 (decrease of HCV proteins)
# Parameters: species or system hepatitis C virus
# Condition Description: Hepatitis C virus, 72 h, Rep5.1 cells, 72 hours with drug, decrease of HCV proteins measured by HCV antibody; Table 1; read-out: Level (IC50 values classified)
A collection of molecules and their measured IC50

Answered examples (5):
Molecule	Result
CC1=C(C(=O)OCCc2scnc2C)CNC(=S)N1	> 20000 nM
COC(=O)c1ccc(COC(=O)C2=C(C)NC(=S)NC2)cc1	> 20000 nM
CC1=C(C(=O)OCc2cc([N+](=O)[O-])ccc2Cl)C(CF)NC(=S)N1 (stereo not shown)	1000 to 10000 nM
CC1=C(C(=O)OCCc2cc(C)cc(C)c2)C(CO)NC(=S)N1 (stereo not shown)	< 1000 nM
COc1ccc(CCCOC(=O)C2=C(C)NC(=S)NC2)cc1	< 1000 nM

Query CC1=C(C(=O)OCc2ccc(N(C)C)cc2)CNC(=S)N1 yields IC50 of 1000 to 10000 nM

Sure, the documented IC50 for CC1=C(C(=O)OCC2CCCO2)CNC(=S)N1 (stereo not shown) is > 20000 nM

Lab note: measured IC50 of CC1=C(C(=O)OCc2ccc(-c3ccccc3)cc2)C(CO)NC(=S)N1 (stereo not shown) was < 1000 nM

Query COC(=O)C1=C(C(=O)OCc2ccccc2)CNC(=S)N1 yields IC50 of > 20000 nM

Entry CC1=C(C(=O)OCCc2cccc(Cl)c2)CNC(=S)N1 ; IC50 = < 1000 nM

====

pIC50 overview
# System: HCV proteins in Rep5.1 cells (replicon cell line)
# Protocol: Inhibitory activity of HCV: cell-based ELISA in replicon cell line Rep5.1 (decrease of HCV proteins)
# Design: species or system hepatitis C virus
# Condition Description: Hepatitis C virus, 72 h, Rep5.1 cells, 72 hours with drug, decrease of HCV proteins measured by HCV antibody; Table 1; read-out: Level (IC50 values classified)
# Procedure: In order to, screen and evaluate the anti-HCV therapeutic agents in cell level, the following experiments are carried out using a replicon cell line, Rep5.1 [Lohmann, et al., Replication of subgenomic hepatitis C virus RNAs in a hepatoma cell line. […] Rep5.1 cells, the replicon cell line, are cultured in DMEM-10 containing 500 μg/ml of G418. […] After 72 hours, the remaining cells are fixed by methanol/acetone (50/50, v/v), and the decrease of HCV proteins is measured by using HCV antibody. […]
pIC50: −log10 of the molar value.

Record excerpt, results attached:
Compound	pIC50
CC1=C(C(=O)OCc2ccc(C)cc2C)CNC(=S)N1 [Compound 122]	> 6.00
CC1=C(C(=O)OCCc2ccc(F)c(F)c2)C(CO)NC(=S)N1 (stereo not shown) [68″]	5.00 to 6.00
CC1=C(C(=O)OCc2ccc3ncsc3c2)CNC(=S)N1 [Compound 248]	5.00 to 6.00
COCC1NC(=S)NC(C)=C1C(=O)OCc1ccccc1 (stereo not shown) [Compound 109]	< 4.70

Entry COc1ccc(Br)cc1COC(=O)C1=C(C)NC(=S)NC1 [Compound 185] — recorded pIC50 = > 6.00

Quick note, pIC50 for CC1=C(C(=O)OCc2ccc3nnn(C)c3c2)CNC(=S)N1 [Compound 242] landed at < 4.70

For O=C(OCCc1ccsc1)C1=C(CO)NC(=S)NC1 [67′] the compound record lists pIC50 as < 4.70

Record summary for O=C(OCc1ccccc1)C1=CNC(=S)NC1 [Compound 44] : reported pIC50 = 5.00 to 6.00

pIC50 in this record for CC1=C(C(=O)OCc2ccccc2C(F)(F)F)CNC(=S)N1 [Compound 100] : > 6.00

Entry CCc1ccc(CCCOC(=O)C2=C(C)NC(=S)NC2CO)o1 (stereo not shown) [19″] — recorded pIC50 = 5.00 to 6.00

// field: pIC50; key: CC1=C(C(=O)OCc2cc(Cl)cc(Cl)c2)C(CO)NC(=S)N1 (stereo not shown) [34″] ; value = 5.00 to 6.00

Lab note: CC(=O)OCC1NC(=S)NC(C)=C1C(=O)OCCc1cccc(Cl)c1 (stereo not shown) [44″] gave pIC50 of 5.00 to 6.00

Looking up CC1=C(C(=O)OCCc2cccc(Cl)c2)C(COC(=O)OCCS(C)(=O)=O)NC(=S)N1 (stereo not shown) [84″] , I see its pIC50 listed as > 6.00

For this compound ( CC1=C(C(=O)OCCCc2ccsc2)C(CS(=O)(=O)C(C)(C)C)NC(=S)N1 (stereo not shown) [68′] ), measured pIC50 is < 4.70

Notebook: CC1=C(C(=O)OCCCc2cccc3ccccc23)C(CO)NC(=S)N1 (stereo not shown) [24″] , pIC50 read as > 6.00

pIC50 in this record for CC1=C(C(=O)OCCc2ccsc2)C2(CCCC2)NC(=S)N1 [29′] : 4.70 to 5.00

Recorded result, CCOC(=O)CCCC1=C(C(=O)OCc2ccccc2)CNC(=S)N1 [Compound 169] , pIC50: 5.00 to 6.00

GET /value?item= CC1=C(C(=O)OCCc2ccc(C)cc2)C(CO)NC(=S)N1 (stereo not shown) [63″] &field=pIC50 returns 5.00 to 6.00

Query CC1=C(C(=O)OC2CCCC2)CNC(=S)N1 [Compound 67] yields pIC50 of 5.00 to 6.00

// pIC50 value for CC1=C(C(=O)OCc2ccc(F)cc2Cl)CNC(=S)N1 [Compound 70] : > 6.00

So for COc1ccc(COC(=O)C2=C(C)NC(=S)NC2)c(OC)c1C [Compound 137] , the logged pIC50 turned out to be 5.00 to 6.00

Looking up CCCN(CCC)c1ccc(CCOC(=O)C2=C(C)NC(=S)NC2CO)cc1[N+](=O)[O-] (stereo not shown) [93″] , I found its pIC50 recorded as > 6.00

Lookup result for CC1=C(C(=O)OCc2ccccc2[N+](=O)[O-])CNC(=S)N1 [Compound 183] ; measured pIC50: 5.00 to 6.00

Origin of the recorded values: patent US20060116390A1
